# maps each entry to its melting point

Recorded melting point, per entry:
Compound	Readout label	Reported result
CCOC(=O)Cn1c(-c2ccccc2Cl)nc2cccnc21	melting point	64 to 66 °C
COc1ccc2c(n1)c(CCNC(C)=O)c1n2Cc2ccccc2-1	melting point	96 to 97 °C
CCCCCCCNC(=O)Nc1ccccc1C(=O)Nc1ccccn1	melting point	118 °C
O=[N+]([O-])c1ccc(S(=O)(=O)Nc2cccnc2Nc2ccccc2)cc1	melting point	191 to 192 °C
COc1nccnc1NS(=O)(=O)c1ccc(Cl)s1	melting point	119 to 120 °C
C=CCN1CC2OC(c3ccccc3)(C1)c1ccccc12 (stereo not given)	melting point	127 to 128 °C
Cc1cccc(-c2n[nH]cc2-c2ccnc(-c3ccc(OCc4cn(C)cn4)cc3)c2)n1	melting point	191 °C
CCCCCCc1cc2c(s1)-n1c(C)nnc1CN=C2c1cc(OC)c(OC)c(OC)c1	melting point	111 to 113 °C

Briefly, melting point measured for `Cc1ccc(C)n1CC(=O)N=C(N)N` : 198 to 200 °C

Briefly, melting point measured for `Clc1nc(-c2ccccn2)[nH]c1I` : 188 to 189 °C

Briefly, melting point measured for OC(Cn1ccnc1)(c1ccc(F)cc1)c1ccc(-c2ccccc2)cc1 (stereo not given) : 220 °C

Briefly, melting point measured for `CCOC(CNC(=S)Nc1nccs1)OCC` : 118 to 119 °C

Briefly, melting point measured for `Cc1ccc(S(=O)(=O)OC(=O)c2cccc(C(=O)OS(=O)(=O)c3ccc(C)cc3)c2)cc1` : 172 to 178 °C

Briefly, melting point measured for `CCc1cc(C(C)=O)ccc1N=C1SCC2(CCCC2)N1C1CCCC1` : 114 to 115 °C

###

Readout label: melting point

Recorded melting point, per entry:
Compound	melting point
Cc1nc2c3c(c(C(=O)N4CCC4)cc2n1C)CCC(c1ccccc1)O3 (stereo not given)	241 to 242 °C
CCN(CC)Cc1cccc(-c2cc(OCc3ccccc3)c3cc(OC)ccc3n2)c1	89.2 to 89.5 °C
CC(C)(C)c1cc2c(c(C(=O)Nc3ccc(S(=O)(=O)C(F)(F)F)cc3Cl)c1O)CCC2	172 to 173 °C
Brc1ccc(Nc2ncc3cc4ccccc4n3n2)cc1	237 to 243 °C
CC1=CC(O)C(OC(=O)c2cccc(N)c2)C(C)(C)CC1=O (stereo not given)	121 to 123 °C

In the following, a different compound is considered.
Briefly, melting point measured for `O=CNC1CCN(c2ncc3ncnc(Nc4ccc(F)c(Cl)c4)c3n2)CC1` : 201 to 203 °C

###

Readout label: melting point

Recorded melting point, per entry:
Compound	melting point
COc1ccc(Sc2nn(-c3ccc(OC)cc3)c(=O)c(C#N)c2C)cc1	188 to 190 °C
CC=CC1OC(=O)c2ccc(N)cc21 (stereo unspecified)	125 to 130 °C

Briefly, melting point measured for Cc1ccc(S(=O)(=O)OC2CC3(C)C=CC(C)(C2)O3)cc1 (stereo unspecified) : 75 to 77 °C

Briefly, melting point measured for CCOC(=O)C(CNC(=O)CSC(=O)c1ccccc1)NC(=O)CSC(=O)c1ccccc1 (stereo unspecified) : 130 to 131 °C

Briefly, melting point measured for `COC(=O)[C@H](CCC(=O)NCCc1ccc(O)c(OCc2ccccc2)c1)NC(=O)OCc1ccccc1` : 110 to 115 °C

Briefly, melting point measured for `O=S(=O)(CC1CC1)c1nc(-c2ccc(F)cc2)c(-c2ccc(F)cc2)[nH]1` : 251 °C

###

Readout label: melting point

Recorded melting point, per entry:
Smiles notation	melting point
COc1ccc(N2C(=O)[C@H](O)[C@@H]2c2ccccc2)cc1	211 to 212 °C
O=C(O)Cc1ccc(N2CC3=C(CC=CC3)C2=O)cc1	198 to 200 °C

Briefly, melting point measured for `Cn1cnc(COc2nn3c(-c4cnccn4)nnc3cc2-c2ccccc2)n1` : 257 to 258 °C

Briefly, melting point measured for `COc1ccc2sc(C3=C(C(C)(C)C)C(C)(C)CO3)cc2c1` : 58 to 59 °C

Briefly, melting point measured for `Cc1nc2[nH]c(=O)[nH]c2cc1-c1ccc(NC(=O)C(F)(F)F)cc1` : > 300 °C

Briefly, melting point measured for `CC1(C)COC(C(=O)/C=C/[C@@H]2[C@H]3CC(=O)O[C@H]3C[C@H]2OC(=O)c2ccccc2)OC1` : 141 °C

Briefly, melting point measured for `Cc1ccc2cccnc2c1C(=O)Nc1nnn[nH]1` : 285 to 287 °C

Briefly, melting point measured for `Cc1ccccc1-c1cccc(F)c1C(=O)NCCCl` : 78 to 81 °C

Briefly, melting point measured for `CC1(C)C(=O)Nc2cccc(O)c21` : 224 to 225 °C

###

# maps each entry to its melting point

Recorded melting point, per entry:
Compound	melting point
N#Cc1cc(-c2ccoc2)c2ccc(COc3cc(F)cc(-c4cccnc4)c3)cc2n1	193 to 195 °C
O=CC(=C(Cl)c1ccc2c(c1)OCO2)c1ccc2c(c1)OCO2	167 to 168 °C
O=C(O)COc1ccc(C(=O)c2ccoc2)c2ccccc12	177 °C
COC(=O)CNc1ccc(OCc2ccccc2)cc1	106 to 107 °C
COc1ccc(-c2nc(N)n3nc(-c4ccco4)nc3n2)cc1	> 275 °C
CCc1nc2c(N)nc3cc(OCc4ccc(S(=O)(=O)NCCc5cc6ccccc6[nH]5)cc4)ccc3c2s1	100 to 101 °C
CCc1nnc2c(NC3CCCC3)nc3ccccc3n12	166 to 168 °C
Cc1c(C(=O)Nc2cccc(C#N)c2N2CCC(O)CC2)cnn1C	261 to 262 °C

Briefly, melting point measured for `Cc1cc(-c2c3ccccc3c(C)c3sc4ccccc4c23)cc(C)c1O` : 147 to 149 °C

Briefly, melting point measured for `CC(C)(C)c1cc2c(c(C(=O)Nc3ccc(S(=O)(=O)C(F)(F)F)cc3Cl)c1O)CCO2` : 201 to 202 °C

Briefly, melting point measured for `CNc1cc(N)c(C(=O)O)cc1[N+](=O)[O-]` : 260 to 272 °C

Briefly, melting point measured for `COc1ccc2nc(C)n(-c3ccccc3)c2n1` : 114 to 116 °C

Briefly, melting point measured for CCc1ccccc1NC(=O)c1ccccc1CN1C(=O)C2(COc3cc4c(cc32)CCO4)c2ccccc21 (centres undefined) : 184 to 186 °C

###

# maps each entry to its melting point

Compound	melting point
COc1ccc(CNc2ccccc2C(=O)Nc2ccc(F)c(C(F)(F)F)c2)cn1	114 to 115 °C
NCCN1C(=O)c2ccccc2C1(O)c1ccccc1Cl (configuration not stated)	172 to 174 °C
COc1ccc2c(c1)CCC([C@@H]1CC[C@H](O)[C@@]1(C)CC(=O)O)C2 (some centres not stated)	142 °C
CN1C(=O)CC[C@]2(C)c3ccc(-c4cccc5ccccc45)cc3CC[C@@H]12	159 °C
N#Cc1cnc2c(sc3ccccc32)c1Oc1ccc(Cl)cc1F	174 to 175 °C

Briefly, melting point measured for `CC1=Nc2cc(C)c(C)cc2C(=O)C1` : 120 to 122 °C

Briefly, melting point measured for `COc1ccc(Oc2cccc3ncnc(NC(=O)Nc4cccc(OC)c4)c23)cc1` : 209 to 210 °C

Briefly, melting point measured for O=C(Nc1ccc(Cl)cc1)O[C@H]1COC(c2ccccc2)=N[C@@H]1c1ccccc1 (racemic) : 200 °C

###

Readout label: melting point

Recorded melting point, per entry:
Compound	Reported result
COCC1(CC(=O)O)OCC(=O)c2c1[nH]c1ccccc21 (stereo unspecified)	135 to 140 °C
NC(=O)c1cnc(C(N)=O)cn1	> 270 °C
CCN(CC)c1ccc(C(=O)c2c(Cl)c(Cl)c(Cl)c(Cl)c2C(=O)O)c(C)c1	179 to 181 °C
O=S1(=O)c2ccccc2N(c2ccccn2)c2ccccc21	184 to 188 °C
CCC(=O)N(c1ccc(C#N)cc1)c1c(NC(C)C(C)(C)C)c(=O)c1=O (stereo unspecified)	211 to 214 °C

Briefly, melting point measured for `CCOP(=O)(O)Cc1cccc(C(F)(F)F)c1` : 48 to 51 °C

###

# maps each entry to its melting point

Molecule	Reported result
C=C(COc1ccc(C(=O)CCC(=O)OC)cc1)COc1ccc(C(C)=O)c(O)c1CCC	89 to 90 °C

Briefly, melting point measured for CN1C(=O)C2(COc3cc4c(cc32)OCCO4)c2c(N3CCOCC3)cccc21 (centres undefined) : 246 to 249 °C

Briefly, melting point measured for `CCCCCCCCCC(=O)Nc1ccc2c(c1)C(=O)N(CCN1CCC(c3noc4cc(F)ccc34)CC1)C2=O` : 159 to 160 °C

Briefly, melting point measured for `CCc1nc2cc(Cl)c(Cl)nc2n1-c1ccc(CCNC(=O)NS(=O)(=O)c2ccc(C)cc2)cc1` : 188 to 189 °C

Briefly, melting point measured for O=C1NC(=NC2CCCCC2)C(c2ccc(Br)cc2)N1c1ccc2[nH]cnc2c1 (centres undefined) : 205 °C

Data credit: a melting point compilation (Tetko et al.; mined from patent text by program, amines drawn as free bases though some values may be those of a salt)
